Known MICac: MIC of the antibiotic in the combination of a selection of compounds
# Test system: P. aeruginosa ATCC27853
# test_details: microbe, parasite or virus in culture
# Set-up: unit not given beside the values
# conditions: strain ATCC27853; with D-11 at MICbc 4; unit not given
Positions of bridges follow the written chain, without caps; N, C: chain ends. Non-standard residues stand in square brackets, D forms with d. Residues, ends and D or L forms follow the SMILES beside them. *: point of attachment. X1 = CC[C@H](C)CCCCC(=O)*; Dab = NCC[C@H](N)C(=O)O
property: MICac: MIC of the antibiotic in the combination

{"compound": "CO[C@H]1/C=C/O[C@@]2(C)Oc3c(C)c(O)c4c(O)c(c5c(nc6cc(C)ccn65)c4c3C2=O)NC(=O)/C(C)=C\\C=C\\[C@H](C)[C@H](O)[C@@H](C)[C@@H](O)[C@@H](C)[C@H](OC(C)=O)[C@@H]1C", "observed_value": 0.5}
{"compound": "CN(C)[C@@H]1C(O)=C(C(N)=O)C(=O)[C@@]2(O)C(O)=C3C(=O)c4c(O)c(NC(=O)CN5CCCC5)cc(F)c4C[C@H]3C[C@@H]12", "observed_value": 1}
{"compound": "CN(C)c1cc(NC(=O)CNC(C)(C)C)c(O)c2c1C[C@H]1C[C@H]3[C@H](N(C)C)C(O)=C(C(N)=O)C(=O)[C@@]3(O)C(O)=C1C2=O", "observed_value": 1}
{"compound": "CC[C@H]1OC(=O)[C@H](C)[C@@H](O[C@H]2C[C@@](C)(OC)[C@@H](O)[C@H](C)O2)[C@H](C)[C@@H](O[C@@H]2O[C@H](C)C[C@H](N(C)C)[C@H]2O)[C@](C)(O)C[C@@H](C)C(=O)[C@H](C)[C@@H](O)[C@]1(C)O", "observed_value": 8}
{"compound": "CC[C@H]1OC(=O)[C@H](C)[C@@H](O[C@H]2C[C@@](C)(OC)[C@@H](O)[C@H](C)O2)[C@H](C)[C@@H](O[C@@H]2O[C@H](C)C[C@H](N(C)C)[C@H]2O)[C@](C)(OC)C[C@@H](C)C(=O)[C@H](C)[C@@H](O)[C@]1(C)O", "observed_value": 8}
{"compound": "CCn1cc(C(=O)O)c(=O)c2ccc(C)nc21", "observed_value": 8}
{"compound": "CO[C@H]1[C@H](OC(=O)c2ccc(C)[nH]2)[C@H](O)[C@@H](Oc2ccc3c(O)c(NC(=O)c4c[nH]c(C(=O)Nc5c(O)c6ccc(O[C@H]7OC(C)(C)[C@@H](OC)[C@H](OC(=O)c8ccc(C)[nH]8)[C@@H]7O)c(C)c6oc5=O)c4C)c(=O)oc3c2C)OC1(C)C", "observed_value": 0.5}
{"compound": "CC[C@H]1OC(=O)[C@H](C)[C@@H](O[C@H]2C[C@@](C)(OC)[C@@H](O)[C@H](C)O2)[C@H](C)[C@@H](O[C@@H]2O[C@H](C)C[C@H](N(C)C)[C@H]2O)[C@](C)(O)C[C@@H](C)CN(C)[C@H](C)[C@@H](O)[C@]1(C)O", "observed_value": 4}
{"compound": "CC1COc2c(N3CCN(C)CC3)c(F)cc3c(=O)c(C(=O)O)cn1c23 (centres unmarked)", "observed_value": 0.25}
{"compound": "C[C@H]1COc2c(N3CCN(C)CC3)c(F)cc3c(=O)c(C(=O)O)cn1c23", "observed_value": 0.125}
{"compound": "CC[C@H](C)CCCCC(=O)N[C@@H](CCN)C(=O)N[C@H](C(=O)N[C@@H](CCN)C(=O)N[C@H]1CCNC(=O)[C@H]([C@@H](C)O)NC(=O)[C@H](CCN)NC(=O)[C@H](CCN)NC(=O)[C@H](CC(C)C)NC(=O)[C@@H](CC(C)C)NC(=O)[C@H](CCN)NC1=O)[C@@H](C)O [Colistin] (X1-[Dab]T[Dab][Dab][Dab][dL]L[Dab][Dab]T; lactam 4-C (inferred); N-terminus assumed)", "observed_value": 0.063}
{"compound": "COc1cc(Cc2cnc(N)nc2N)cc(OC)c1OC", "observed_value": 32}
{"compound": "C[C@@H]1O[C@@H]1P(=O)(O)O", "observed_value": 8}
{"compound": "CO[C@@H]1[C@@H](OC(N)=O)[C@@H](O)[C@H](Oc2ccc3c(O)c(NC(=O)c4ccc(O)c(CC=C(C)C)c4)c(=O)oc3c2C)OC1(C)C", "observed_value": 2}
{"compound": "C[C@H]1[C@H](NC(=O)/C(=N\\OC(C)(C)C(=O)O)c2csc(N)n2)C(=O)N1S(=O)(=O)O", "observed_value": 4}
{"compound": "CC[C@H]1OC(=O)[C@H](C)C(=O)[C@H](C)[C@@H](O[C@@H]2O[C@H](C)C[C@H](N(C)C)[C@H]2O)[C@](C)(OC)C[C@@H](C)C(=O)[C@H](C)[C@H]2N(CCCCn3cnc(-c4cccnc4)c3)C(=O)O[C@]12C", "observed_value": 8}
{"compound": "CN(C)c1ccc(O)c2c1C[C@H]1C[C@H]3[C@H](N(C)C)C(O)=C(C(N)=O)C(=O)[C@@]3(O)C(O)=C1C2=O", "observed_value": 1}
{"compound": "CC[C@H](C)CCCCC(=O)N[C@@H](CCN)C(=O)N[C@H](C(=O)N[C@@H](CCN)C(=O)N[C@H]1CCNC(=O)[C@H]([C@@H](C)O)NC(=O)[C@H](CCN)NC(=O)[C@H](CCN)NC(=O)[C@H](CC(C)C)NC(=O)[C@@H](Cc2ccccc2)NC(=O)[C@H](CCN)NC1=O)[C@@H](C)O [Polymyxin B] (X1-[Dab]T[Dab][Dab][Dab][dF]L[Dab][Dab]T; lactam 4-C (inferred); N-terminus assumed)", "observed_value": 0.008}
